Numbers sourced from patent US12582722B2.

Each entry below carries its reported DC50.
- system_name: BTK (Homo sapiens)
- Construct: endogenous in cells; host or cells: Ramos (ATCC CRL-1596)
- Sequence (Q06187 whole entry): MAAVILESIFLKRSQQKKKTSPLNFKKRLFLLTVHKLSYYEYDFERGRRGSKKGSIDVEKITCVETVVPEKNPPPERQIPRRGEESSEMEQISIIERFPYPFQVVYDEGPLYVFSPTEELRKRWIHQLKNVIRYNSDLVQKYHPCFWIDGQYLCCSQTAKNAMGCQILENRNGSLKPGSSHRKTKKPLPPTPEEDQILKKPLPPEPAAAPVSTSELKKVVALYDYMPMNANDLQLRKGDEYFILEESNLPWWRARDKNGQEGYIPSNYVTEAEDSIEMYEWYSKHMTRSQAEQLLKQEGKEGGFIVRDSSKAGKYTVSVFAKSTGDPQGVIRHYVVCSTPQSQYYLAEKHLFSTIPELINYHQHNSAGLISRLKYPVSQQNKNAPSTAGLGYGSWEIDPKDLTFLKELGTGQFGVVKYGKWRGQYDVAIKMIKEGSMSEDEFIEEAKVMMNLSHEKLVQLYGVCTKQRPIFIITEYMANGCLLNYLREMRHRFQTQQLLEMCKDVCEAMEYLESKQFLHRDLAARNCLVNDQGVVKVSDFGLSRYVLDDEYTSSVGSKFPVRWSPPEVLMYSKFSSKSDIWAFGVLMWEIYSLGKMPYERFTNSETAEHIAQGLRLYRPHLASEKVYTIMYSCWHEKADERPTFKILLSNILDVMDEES
- assay_explanation: Cellular BTK HTRF Assay (BTK degradation in Ramos cells)
- Type: cell-based
- condition_details: four hours incubation, 37° C., BTK levels relative to DMSO-treated cells
reported_metric: DC50

>>> test_result("CS(=O)(=O)c1ccc(Nc2nc(N3CCC[C@@H](NC(=O)C4CC5CCC(C4)N5CC4CCN(c5ccc6c(c5)C(=O)N(C5CCC(=O)NC5=O)C6=O)CC4)C3)cnc2C(N)=O)cc1 (stereo partly shown)")
"7.5 to 50 nM"
>>> test_result("CS(=O)(=O)c1ccc(Nc2nc(N3CCC[C@@H](NC(=O)[C@H]4[C@@H]5CN(CC6CCN(c7ccc8c(c7)C(=O)N(C7CCC(=O)NC7=O)C8=O)CC6)C[C@@H]54)C3)cnc2C(N)=O)cc1 (stereo partly shown)")
"< 7.5 nM"
>>> test_result("Cc1cc(Nc2nc(N3CCC[C@@H](NC(=O)C4CCN(C5CCN(c6ccc7c(c6)C(=O)N(C6CCC(=O)NC6=O)C7=O)CC5)CC4)C3)cnc2C(N)=O)sn1 (stereo partly shown)")
"< 7.5 nM"
>>> test_result("CS(=O)(=O)c1ccc(Nc2nc(N3CCC[C@@H](NC(=O)[C@H]4CCN(CC5CCN(c6ccc7c(c6)C(=O)N(C6CCC(=O)NC6=O)C7=O)CC5)C4)C3)cnc2C(N)=O)cc1 (stereo partly shown)")
"7.5 to 50 nM"
>>> test_result("Cn1cc(Nc2nc(N3CCC[C@@H](N4CCC5(CCN(CC6CN(c7ccc8c(c7)C(=O)N(C7CCC(=O)NC7=O)C8=O)C6)CC5)C4=O)C3)cnc2C(N)=O)cn1 (stereo partly shown)")
"< 7.5 nM"
>>> test_result("CS(=O)(=O)c1ccc(Nc2nc(N3CCC[C@@H](NC(=O)N4CC5(CN(Cc6ccc7c(c6)C(=O)N(C6CCC(=O)NC6=O)C7=O)C5)C4)C3)cnc2C(N)=O)cc1 (stereo partly shown)")
"7.5 to 50 nM"
>>> test_result("CS(=O)(=O)c1ccc(Nc2nc(N3CCC[C@@H](NC(=O)CCOCCCc4cccc5c4CN(C4CCC(=O)NC4=O)C5=O)C3)cnc2C(N)=O)cc1 (stereo partly shown)")
"50 to 500 nM"
>>> test_result("CS(=O)(=O)c1ccc(Nc2nc(N3CCC[C@@H](NC(=O)N4CCC5(CCN(c6ccc7c(c6)C(=O)N(C6CCC(=O)NC6=O)C7=O)CC5)C4)C3)cnc2C(N)=O)cc1 (stereo partly shown)")
"7.5 to 50 nM"
>>> test_result("CS(=O)(=O)c1ccc(Nc2nc(N3CCC[C@@H](NC(=O)OCC4CCN(c5ccc6c(c5)C(=O)N(C5CCC(=O)NC5=O)C6=O)CC4)C3)cnc2C(N)=O)cc1 (stereo partly shown)")
"7.5 to 50 nM"
>>> test_result("CS(=O)(=O)c1ccc(Nc2nc(N3CCC[C@@H](NC(=O)N4CCC5(CCN(Cc6ccc7c(c6)C(=O)N(C6CCC(=O)NC6=O)C7=O)C5)CC4)C3)cnc2C(N)=O)cc1 (stereo partly shown)")
"< 7.5 nM"

====

Each entry below carries its reported DC50.
- system_name: BTK (Homo sapiens)
- Construct: endogenous in cells; host or cells: Ramos (ATCC CRL-1596)
- assay_explanation: Cellular BTK HTRF Assay (BTK degradation in Ramos cells)
- Assay type: cell-based
- condition_details: four hours incubation, 37° C., BTK levels relative to DMSO-treated cells
reported_metric: DC50

>>> test_result("CS(=O)(=O)c1ccc(Nc2nc(N3CCC[C@@H](NC(=O)C4CN(CC5CCN(c6ccc7c(c6)C(=O)N(C6CCC(=O)NC6=O)C7=O)CC5)C4)C3)cnc2C(N)=O)cc1 (stereo partly shown) [Compound 30]")
"7.5 to 50 nM"
>>> test_result("CS(=O)(=O)c1ccc(Nc2nc(N3CCC[C@@H](NC(=O)N4CCC5(CC4)CN(c4ccc6c(c4)C(=O)N(C4CCC(=O)NC4=O)C6=O)C5)C3)cnc2C(N)=O)cc1 (stereo partly shown) [Compound 28]")
"7.5 to 50 nM"
>>> test_result("Cc1cc(Nc2nc(N3CCC[C@@H](NC(=O)C4CCN(C5CN(c6ccc7c(c6)C(=O)N(C6CCC(=O)NC6=O)C7=O)C5)CC4)C3)cnc2C(N)=O)sn1 (stereo partly shown) [Compound 38]")
"7.5 to 50 nM"
>>> test_result("CS(=O)(=O)c1ccc(Nc2nc(N3CCC[C@@H](NC(=O)C4CCN(CC5CCN(c6ccc7c(c6)C(=O)N(C6CCC(=O)NC6=O)C7=O)CC5)CC4)C3)cnc2C(N)=O)cc1 (stereo partly shown) [Compound 20]")
"< 7.5 nM"
>>> test_result("CS(=O)(=O)c1ccc(Nc2nc(N3CCC[C@@H](NC(=O)C4CC5(C4)CN(Cc4ccc6c(c4)C(=O)N(C4CCC(=O)NC4=O)C6=O)C5)C3)cnc2C(N)=O)cc1 (stereo partly shown) [Compound 32]")
"7.5 to 50 nM"
>>> test_result("Cc1cc(Nc2nc(N3CCC[C@@H](NC(=O)N4CCC5(CC4)CCN(c4ccc6c(c4)C(=O)N(C4CCC(=O)NC4=O)C6=O)CC5)C3)cnc2C(N)=O)sn1 (stereo partly shown) [Compound 12]")
"7.5 to 50 nM"
>>> test_result("CS(=O)(=O)c1ccc(Nc2nc(N3CCC[C@@H](NC(=O)CCCCc4ccc5c(c4)C(=O)N(C4CCC(=O)NC4=O)C5)C3)cnc2C(N)=O)cc1 (stereo partly shown) [Compound 4]")
"50 to 500 nM"
>>> test_result("CS(=O)(=O)c1ccc(Nc2nc(N3CCC[C@@H](NC(=O)C4CCN(C5CCN(c6ccc7c(c6)C(=O)N(C6CCC(=O)NC6=O)C7=O)CC5)CC4)C3)cnc2C(N)=O)cc1 (stereo partly shown) [Compound 40]")
"50 to 500 nM"
>>> test_result("Cc1cc(Nc2nc(N3CCC[C@@H](NC(=O)N4CCN(CC5CN(c6ccc7c(c6)C(=O)N(C6CCC(=O)NC6=O)C7=O)C5)CC4)C3)cnc2C(N)=O)sn1 (stereo partly shown) [Compound 18]")
"< 7.5 nM"
>>> test_result("CS(=O)(=O)c1ccc(Nc2nc(N3CCC[C@@H](NC(=O)[C@H]4[C@@H]5CN(C6CCN(c7ccc8c(c7)C(=O)N(C7CCC(=O)NC7=O)C8=O)CC6)C[C@@H]54)C3)cnc2C(N)=O)cc1 (stereo partly shown) [Compound 35]")
"7.5 to 50 nM"
